Target: NAC peptide (Homo sapiens)
Construct: a 35 amino acid peptide corresponding to residues 61 to 95 of the α-synuclein protein; made in house; host or cells: chemical solid-phase peptide synthesis (Fmoc), not expressed
Assay: Electron microscopy (EM) analysis of NAC fiber formation in the fibrillogenesis assay
Type: biochemical
Settings: amount of fibers compared to NAC alone (100% fibers); 10 frames of a 300-mesh grid
measurement-name: EM Score

molecule	study-system	measurement-name	measured-value
NCCCCS(=O)(=O)O [drawing 63]	NAC peptide (Homo sapiens)	EM Score	AA+
CC[N+](CC)(CC)CCCS(=O)(=O)[O-] [drawing 62]	NAC peptide (Homo sapiens)	EM Score	AA+

====

Target: NAC peptide (Homo sapiens, UniProt P37840)
Construct: a 35 amino acid peptide corresponding to residues 61 to 95 of the α-synuclein protein; made in house; host or cells: chemical solid-phase peptide synthesis (Fmoc), not expressed
Assay: Circular dichroism (CD) analysis of NAC peptide conformation after incubation with test compounds (fibrillogenesis assay)
Assay type: biochemical
Conditions: active if it prevents the transition to β-turn/β-sheet in 50% or more of the trials

molecule	Activity (CD)
O=S(=O)(O)CC(O)CNC1CCCCC1 (stereo not drawn)	No
CCCC(CO)NCCC(C)S(=O)(=O)O (stereo not drawn)	No
CC(C)(C)C1CCC(NCCCS(=O)(=O)O)CC1 (stereo not drawn)	No
O=S(=O)(O)CC(O)CNC1C2CC3CC(C2)CC1C3 (stereo not drawn)	Yes
O=S(=O)(O)CC(O)CNC12C[C@H]3C[C@@H](C1)C[C@@H](C2)C3 (stereo partly drawn)	Yes
CC(CC[N+]12CCC(CC1)CC2)S(=O)(=O)O (stereo not drawn)	No
CC(C)(C)NCCCCS(=O)(=O)O	No
NCCCCS(=O)(=O)O [compound 6]	Yes
NCCCOS(=O)(=O)O	No
O=S(=O)(O)CCCCS(=O)(=O)O	Yes
O=S(=O)(O)OCCCOS(=O)(=O)O	Yes
O=S(=O)(O)CCCN1CCN(Cc2ccccc2)CC1	No
O=S(=O)(O)CCCNC(Cc1ccccc1)c1ccccc1 (stereo not drawn)	No
NCCOS(=O)(=O)O	No
CCCCCCCCCCCCCCS(C)(C)CCCS(=O)(=O)O	Yes
NCCCCS(=O)(=O)O [compound 7]	Yes
CC1CC(NCCCS(=O)(=O)O)CC(C)(C)C1 (stereo not drawn)	Yes
O=S(=O)(O)CCCN1CCc2c([nH]c3ccccc23)C1	Yes

====

Molecular target: NAC peptide (Homo sapiens, UniProt P37840)
Construct: a 35 amino acid peptide corresponding to residues 61 to 95 of the α-synuclein protein; made in house; host or cells: chemical solid-phase peptide synthesis (Fmoc), not expressed
Assay: Circular dichroism (CD) analysis of NAC peptide conformation after incubation with test compounds (fibrillogenesis assay)
Assay type: biochemical
Details: number of CD trials in which transition to β-turn/β-sheet was prevented, over trials run
measurement-name: Activity: active trials / trials

compound	measurement-name	measured-value
CC(C)(C)C1CCC(NCCCS(=O)(=O)O)CC1 (stereo not shown)	Activity: active trials / trials	0/2
NCCOS(=O)(=O)O	Activity: active trials / trials	0/2
O=S(=O)(O)CCC[N+]12CCC(CC1)CC2	Activity: active trials / trials	¼
CCCCCCCCCCCCS(C)(C)CCCS(C)(=O)=O	Activity: active trials / trials	4/4
O=C1NCCCC[C@@H]1NCCCS(=O)(=O)O	Activity: active trials / trials	0/2
CCCC(CO)NCCC(C)S(=O)(=O)O (stereo not shown)	Activity: active trials / trials	0/2
CCCCCCCCCCCCCCS(C)(C)CCCS(=O)(=O)O	Activity: active trials / trials	5/5

====

Biological target: NAC peptide (Homo sapiens, UniProt P37840)
Construct: a 35 amino acid peptide corresponding to residues 61 to 95 of the α-synuclein protein; made in house; host or cells: chemical solid-phase peptide synthesis (Fmoc), not expressed
Test: Circular dichroism (CD) analysis of NAC peptide conformation after incubation with test compounds (fibrillogenesis assay)
Format: biochemical
Details: number of CD trials in which transition to β-turn/β-sheet was prevented, over trials run
measurement-name: Activity: active trials / trials

compound	measurement-name	measured-value
O=S(=O)(O)CCCNCCc1c[nH]c2ccccc12	Activity: active trials / trials	⅓
CC(CC[N+]12CCC(CC1)CC2)S(=O)(=O)O (stereo not shown)	Activity: active trials / trials	0/3
CC(C)(C)NCCCCS(=O)(=O)O	Activity: active trials / trials	0/3
O=S(=O)(O)CC(O)CNC1C2CC3CC(C2)CC1C3 (stereo not shown)	Activity: active trials / trials	2/2
O=S(=O)(O)CC(O)CNC12C[C@H]3C[C@@H](C1)C[C@@H](C2)C3 (stereo partly shown)	Activity: active trials / trials	2/2
O=S(=O)(O)CCCN1CCN(Cc2ccccc2)CC1	Activity: active trials / trials	⅓
CC(CCNC12C[C@H]3C[C@@H](C1)C[C@@H](C2)C3)S(=O)(=O)O (stereo partly shown)	Activity: active trials / trials	½
